biological target: DN-III quality control recombinant protein (produced by Fapon Biotech InC.) (dengue virus); test: BLI, AMC sensor, antibody captured
test.readout: koff (s⁻¹)
Respond numerically; units are s⁻¹ and should not be typed.

Mutation 1-23 (antibody, V domains shown) VH: EVQLQQSGTELVRPGALVKLSCKASGFNIKDYYLHWVKQRPRQGLEWIGWIDPENGKTIYDPKFQDKASITSDTSTNTAYLQLRSLTSEDTAVYYCVTAYFRFVYWGQGTLVTVSA VL: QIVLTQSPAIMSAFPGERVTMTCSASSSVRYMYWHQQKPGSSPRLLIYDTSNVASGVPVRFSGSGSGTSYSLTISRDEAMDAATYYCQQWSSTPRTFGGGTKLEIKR; 3.86e-05
Mutation 1-22 (antibody, V domains shown) VH: EVQLQQSGTELVRPGALVKLSCKASGFNIKDYYIHWVKQRPRQGLEWIGWIDPENGKTLYDPKFQDKASITSDTSTNTAYLQLRSLTSEDTAVYYCVSAYYRFVYWGQGTLVTVSA VL: QIVLTQSPAIMSAFPGERVTMTCSASTSVRYMYWHQQKPGSSPRLLIYDTSNLASGVPVRFSGSGSGTSYSLTISRDEAMDAATYYCQQWSSFPRTFGGGTKLEIKR; 3.2e-05
Mutation 1-5 (antibody, V domains shown) VH: EVQLQQSGTELVRPGALVKLSCKASGFNIKDYYLHWVKQRPRQGLEWIGWIDPENGKTIYDPKFQDKASITSDTSTNTAYLQLRSLTSEDTAVYYCVSAYYRFVYWGQGTLVTVSA VL: QIVLTQSPAIMSAFPGERVTMTCSASTSVRYMYWHQQKPGSSPRLLIYDTSNVASGVPVRFSGSGSGTSYSLTISRDEAMDAATYYCQQWSSFPRTFGGGTKLEIKR; 2.11e-05
Mutation 1-2 (antibody, V domains shown) VH: EVQLQQSGTELVRPGALVKLSCKASGFNIKDYYLHWVKQRPRQGLEWIGWIDPENGKTLYDPKFQDKASITSDTSTNTAYLQLRSLTSEDTAVYYCVTAYYRFVYWGQGTLVTVSA VL: QIVLTQSPAIMSAFPGERVTMTCSASSSVRYMYWHQQKPGSSPRLLIYDTSNVASGVPVRFSGSGSGTSYSLTISRDEAMDAATYYCQQWSSFPRTFGGGTKLEIKR; 4.99e-05
Mutation 1-8 (antibody, V domains shown) VH: EVQLQQSGTELVRPGALVKLSCKASGFNIKDYYLHWVKQRPRQGLEWIGWIDPENGKTIYDPKFQDKASITSDTSTNTAYLQLRSLTSEDTAVYYCVTAYYRFVYWGQGTLVTVSA VL: QIVLTQSPAIMSAFPGERVTMTCSASTSVRYMYWHQQKPGSSPRLLIYDTSNVASGVPVRFSGSGSGTSYSLTISRDEAMDAATYYCQQWSSFPRTFGGGTKLEIKR; 2.33e-05
Mutation 1-12 (antibody, V domains shown) VH: EVQLQQSGTELVRPGALVKLSCKASGFNIKDYYVHWVKQRPRQGLEWIGWIDPENGKTLYDPKFQDKASITSDTSTNTAYLQLRSLTSEDTAVYYCVTAYFRFVYWGQGTLVTVSA VL: QIVLTQSPAIMSAFPGERVTMTCSASTSVRYMYWHQQKPGSSPRLLIYDTSNIASGVPVRFSGSGSGTSYSLTISRDEAMDAATYYCQQWSSTPRTFGGGTKLEIKR; 4.55e-05

Query: Please report koff for the following binder: Mutation 1-36 (antibody, V domains shown) VH: EVQLQQSGTELVRPGALVKLSCKASGFNIKDYYVHWVKQRPRQGLEWIGWIDPENGKTIYDPKFQDKASITSDTSTNTAYLQLRSLTSEDTAVYYCVTAYFRFVYWGQGTLVTVSA VL: QIVLTQSPAIMSAFPGERVTMTCSASSSVRYMYWHQQKPGSSPRLLIYDTSNLASGVPVRFSGSGSGTSYSLTISRDEAMDAATYYCQQWSSFPRTFGGGTKLEIKR
Response: 1.53e-05

Query: Find the measured koff of Mutation 1-40 (antibody, V domains shown) VH: EVQLQQSGTELVRPGALVKLSCKASGFNIKDYYIHWVKQRPRQGLEWIGWIDPENGKTLYDPKFQDKASITSDTSTNTAYLQLRSLTSEDTAVYYCVTAYVRFVYWGQGTLVTVSA VL: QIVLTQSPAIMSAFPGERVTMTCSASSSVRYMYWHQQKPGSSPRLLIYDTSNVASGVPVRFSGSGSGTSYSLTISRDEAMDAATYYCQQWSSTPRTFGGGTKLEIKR and report it.
Response: 4.95e-05

Query: Give me measured koff, please, for this binder: Mutation 1-15 (antibody, V domains shown) VH: EVQLQQSGTELVRPGALVKLSCKASGFNIKDYYVHWVKQRPRQGLEWIGWIDPENGKTIYDPKFQDKASITSDTSTNTAYLQLRSLTSEDTAVYYCVTAYYRFVYWGQGTLVTVSA VL: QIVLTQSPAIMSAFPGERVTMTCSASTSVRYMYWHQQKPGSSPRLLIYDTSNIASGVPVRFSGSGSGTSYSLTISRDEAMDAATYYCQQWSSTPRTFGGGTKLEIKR
Response: 1.89e-05

Query: State its koff for this binder: Mutation 1-25 (antibody, V domains shown) VH: EVQLQQSGTELVRPGALVKLSCKASGFNIKDYYIHWVKQRPRQGLEWIGWIDPENGKTIYDPKFQDKASITSDTSTNTAYLQLRSLTSEDTAVYYCVTAYFRFVYWGQGTLVTVSA VL: QIVLTQSPAIMSAFPGERVTMTCSASSSVRYMYWHQQKPGSSPRLLIYDTSNLASGVPVRFSGSGSGTSYSLTISRDEAMDAATYYCQQWSSTPRTFGGGTKLEIKR
Response: 1.78e-05
